Cited source: the CheMixHub drug solubility set

testProtocol: xn = mol fraction of the nth substance listed, in the solute-free solvent
assayConditions: 293.15 K; x2 = 0.4772
reportedProperty: solubility (g/100 g solution)

                                   compound  number
0  Cc1[nH]c(=O)c(C#N)cc1-c1ccncc1 + CCO + O  0.0054
1  CC(C)OC(=O)C(C)NP(=O)(OCC1OC(n2ccc(=O)[nH]c2=O)C(C)(F)C1O)Oc1ccccc1 (centres undefined) + CCO + O    20.2
2  Nc1cccc(S(=O)(=O)c2cccc(N)c2)c1 + CCO + O    1.14
3  COc1cc2c(cc1OC)-c1cc3ccc(OC)c(OC)c3c[n+]1CC2.[Cl-] + CCO + O    2.75

###

testProtocol: xn = mol fraction of the nth substance listed, in the solute-free solvent
assayConditions: 298.15 K; x2 = 0.2307
The entries below come with measured solubility (g/100 g solution) values attached.
reportedProperty: solubility (g/100 g solution)

>>> df
                                   compound   number
0  Nc1cccc(S(=O)(=O)c2cccc(N)c2)c1 + CC(C)O + O    0.652
1  CN1CCN(C2=Nc3cc(Cl)ccc3Nc3ccccc32)CC1 + CC(C)O + O    0.493
2  Cc1[nH]c(=O)c(C#N)cc1-c1ccncc1 + CC(C)O + O  0.00927
3     c1ccc2[nH]c(-c3cscn3)nc2c1 + CCCO + O    0.216
4   c1ccc2[nH]c(-c3cscn3)nc2c1 + CC(C)O + O    0.101
5                  Nc1nccnc1Cl + CC(C)O + O    0.609

###

testProtocol: xn = mol fraction of the nth substance listed, in the solute-free solvent
assayConditions: 293.15 K; x2 = 0.5454
reportedProperty: solubility (g/100 g solution)

>>> print(df.to_string())
                                   molecule  number
0  CN1CCN(C2=Nc3cc(Cl)ccc3Nc3ccccc32)CC1 + CC(C)O + O    1.27
1                  Nc1nccnc1Cl + CC(C)O + O   0.808
2  Cc1[nH]c(=O)c(C#N)cc1-c1ccncc1 + CC(C)O + O  0.0135
3  Nc1cccc(S(=O)(=O)c2cccc(N)c2)c1 + CC(C)O + O   0.702
4   c1ccc2[nH]c(-c3cscn3)nc2c1 + CC(C)O + O   0.225
5     c1ccc2[nH]c(-c3cscn3)nc2c1 + CCCO + O   0.483

###

Here, each record is paired with measured solubility (g/100 g solution) data.
testProtocol: xn = mol fraction of the nth substance listed, in the solute-free solvent
assayConditions: 278.15 K; x2 = 0.3
reportedProperty: solubility (g/100 g solution)

                                   molecule  result
0                S=c1[nH]ncs1 + CC(C)=O + O    11.4
1                     S=c1[nH]ncs1 + CO + O    1.39
2  Cc1ncc(C[n+]2csc(CCO)c2C)c(N)n1.O=[N+]([O-])[O-] + O + CC(C)O  0.0345
3  CCCCCOC(=O)Nc1nc(=O)n(C2OC(C)C(O)C2O)cc1F (centres undefined) + CCOC(C)=O + CCCCCC  0.0501
4                    S=c1[nH]ncs1 + CCO + O    3.54
5  CCCCCOC(=O)Nc1nc(=O)n(C2OC(C)C(O)C2O)cc1F (centres undefined) + CCOC(C)=O + CCCCCCC  0.0197
6  Cc1ncc(C[n+]2csc(CCO)c2C)c(N)n1.O=[N+]([O-])[O-] + O + CO   0.483
7                   S=c1[nH]ncs1 + CCCO + O    5.01
8  Cc1ncc(C[n+]2csc(CCO)c2C)c(N)n1.O=[N+]([O-])[O-] + O + CC(C)=O  0.0632
